# Target or system: 14-3-3σ (Homo sapiens)
# Sequence (P31947 whole entry): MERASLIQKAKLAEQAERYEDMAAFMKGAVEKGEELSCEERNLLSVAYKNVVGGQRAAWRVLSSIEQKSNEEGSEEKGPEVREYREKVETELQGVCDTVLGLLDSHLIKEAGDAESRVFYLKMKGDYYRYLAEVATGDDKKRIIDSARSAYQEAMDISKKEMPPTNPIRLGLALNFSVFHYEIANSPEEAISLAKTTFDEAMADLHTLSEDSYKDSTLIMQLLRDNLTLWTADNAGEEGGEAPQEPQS
# Assay: Intact mass spectrometry assay, apo (no peptide)
# Type: binding
# Parameters: full-length for mass spectrometry and fluorescence anisotropy assays; made in house; host or cells: E. coli Rosetta 2(DE3)pLysS, pPROEX HTb vector
# Protocol conditions: 1 μM compound, 100 nM 14-3-3σ, 16 h
Measurement type: % bound, APO, 16h

Solved entries:
Compound: O=C(CCl)NCC1CCN(S(=O)(=O)Cc2cccc(F)c2)CC1
% bound, APO, 16h: 1.9%
--
Compound: O=C(CCl)NCC1CCN(S(=O)(=O)Cc2ccc(F)cc2)CC1
% bound, APO, 16h: 1.9%
--
Compound: O=C(CCl)NCC1CCN(S(=O)(=O)Cc2ccc(Cl)cc2)CC1
% bound, APO, 16h: 1.5%
--
Compound: COc1ccc(S(=O)(=O)N2CCC(CNC(=O)CCl)CC2)cc1
% bound, APO, 16h: 7.4%
--
Compound: O=C(CCl)N1CC[C@]2(CCN(S(=O)(=O)c3ccc(Br)c(F)c3)C2)C1
% bound, APO, 16h: 36.2%

Qu. % bound, APO, 16h lookup needed for O=C(CCl)NC1CC2(CCN(S(=O)(=O)c3ccc(Br)c(F)c3)CC2)C1 , thanks.
Ans. 1.9%

Qu. Another compound to look at: O=C(CCl)NCC1CCN(S(=O)(=O)c2cccc(F)c2)CC1
Ans. 1.9%

Qu. Now consider O=C(CCl)N1CC2(CC(NS(=O)(=O)c3ccc(Br)c(F)c3)CO2)C1 (stereo not drawn) and answer again.
Ans. 15.9%

Qu. Param item: O=C(CCl)NCC1CCN(S(=O)(=O)c2ccc(Br)cc2F)CC1
Ans. 2.9%

Qu. Consider next the compound Cc1ccc(S(=O)(=O)N2CCC(CNC(=O)CCl)CC2)cc1 in the same way.
Ans. 0.5%

Qu. O=C(CCl)NCC1CCN(S(=O)(=O)Cc2ccccc2)CC1 , same question.
Ans. 4.7%

Qu. Try this compound next: O=C(CCl)NCCCC1CCN(S(=O)(=O)c2ccc(Cl)cc2)CC1
Ans. 2.5%

Qu. Then COc1ccc(S(=O)(=O)N2CCC(CNC(=O)CCl)CC2)cc1F ?
Ans. 0.9%

Qu. Next compound up: O=C(CCl)NCC1CCN(S(=O)(=O)c2cccc(C(F)(F)F)c2)CC1
Ans. 0.5%

Qu. Then O=C(CCl)NCC1CCN(S(=O)(=O)c2ccc3c(c2)OCO3)CC1 ?
Ans. 1.9%

Qu. Input O=C(CCl)NCc1ccc(NS(=O)(=O)c2ccc(Br)c(F)c2)cc1
Ans. 1.5%

Qu. Now the compound O=C(CCl)NCC1CCN(S(=O)(=O)c2ccc(F)c(F)c2)CC1
Ans. 6.5%

Qu. Moving on to the next compound: O=C(CCl)N1CC2(CCN(S(=O)(=O)c3ccc(Br)c(F)c3)CC2(F)F)C1
Ans. 18.5%

====

In this section we review reported % bound, C-RAF259 (11mer), 8h values for a set of molecules.
# Target or system: 14-3-3σ/C-RAF259 (Homo sapiens, UniProt P31947)
# Assay: Intact mass spectrometry assay with C-RAF259 phospho-peptide
# Type: binding
# Set-up: full-length for mass spectrometry and fluorescence anisotropy assays; made in house; host or cells: E. coli Rosetta 2(DE3)pLysS (14-3-3σ); peptides from Elim Biopharmaceuticals
# Protocol conditions: 1 μM compound, 100 nM 14-3-3σ, 18 µM peptide, 8 h
Unit % implied. Number only.

Below are worked cases with known answers.
Molecule: O=C(CCl)NCC1CCN(S(=O)(=O)C2CCC3(CC2)CC3(F)F)CC1 (stereo not drawn)
Unit descriptor: %
% bound, C-RAF259 (11mer), 8h: 0.9

Molecule: O=C(C(Cl)Cl)N1CC2(CCN(S(=O)(=O)c3ccc(Br)c(F)c3)CC2(F)F)C1
Unit descriptor: %
% bound, C-RAF259 (11mer), 8h: 0

Qu. What does the data say about its % bound, C-RAF259 (11mer), 8h? Entry: Cc1ccc(S(=O)(=O)N2CCC(CNC(=O)CCl)CC2)cc1
Ans. 13.7

====

# Target or system: 14-3-3σ/C-RAF (Homo sapiens)
# Sequence (P04049 whole entry partner, one chain of several): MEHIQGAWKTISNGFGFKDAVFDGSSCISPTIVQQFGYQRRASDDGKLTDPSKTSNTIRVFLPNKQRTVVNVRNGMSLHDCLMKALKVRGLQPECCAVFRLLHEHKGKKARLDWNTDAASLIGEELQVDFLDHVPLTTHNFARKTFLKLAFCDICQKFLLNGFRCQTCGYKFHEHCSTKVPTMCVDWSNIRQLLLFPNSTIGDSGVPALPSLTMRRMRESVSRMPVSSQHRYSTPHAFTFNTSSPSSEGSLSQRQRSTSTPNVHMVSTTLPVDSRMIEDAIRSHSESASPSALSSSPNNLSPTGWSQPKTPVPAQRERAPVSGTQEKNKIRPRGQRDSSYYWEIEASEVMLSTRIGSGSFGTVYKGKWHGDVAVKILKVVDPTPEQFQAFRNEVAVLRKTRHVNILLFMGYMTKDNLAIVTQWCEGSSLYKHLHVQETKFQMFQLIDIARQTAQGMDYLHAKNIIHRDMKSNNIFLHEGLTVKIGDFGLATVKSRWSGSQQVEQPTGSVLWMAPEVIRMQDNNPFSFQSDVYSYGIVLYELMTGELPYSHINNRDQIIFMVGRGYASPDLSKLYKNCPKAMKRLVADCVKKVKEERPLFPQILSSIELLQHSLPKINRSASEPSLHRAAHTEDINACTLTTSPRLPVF
# Assay: cell-based
Measurement type: EC50 (µM)
The reply should contain only the number, in µM.

Qu. What value of EC50 has been reported for the following compound? O=C(CCl)NCC1CCN(S(=O)(=O)c2ccc(I)cc2)CC1 [Compound 23]
Ans. 0.18

====

# Target or system: 14-3-3σ/TAZ (Homo sapiens)
# Assay: FA compound titration follow-up from selectivity panel
Measurement type: pEC50
On this scale, pEC50 is minus log10 of a concentration expressed in M (mol/L).

Qu. Notebook: pull reported pEC50 for 14-3-3σ/TAZ (Homo sapiens), entry O=C(CCl)NCC1CCN(S(=O)(=O)c2ccc(I)cc2)CC1 [Compound 23]
Ans. 4.93

====

# Target or system: 14-3-3σ/KC1A (Homo sapiens, UniProt P31947)
# Assay: FA compound titration follow-up from selectivity panel
Measurement type: EC50 (µM)
Record the value in µM, omitting the unit from your answer.

Qu. Which value of EC50 has been reported for O=C(CCl)NCC1CCN(S(=O)(=O)c2ccc(I)cc2)CC1 in the records?
Ans. 38.1

====

# Target or system: 14-3-3σ/C-RAF259 (Homo sapiens, UniProt P31947)
# Assay: Intact mass spectrometry assay with C-RAF259 phospho-peptide
# Assay type: binding
# Parameters: full-length for mass spectrometry and fluorescence anisotropy assays; made in house; host or cells: E. coli Rosetta 2(DE3)pLysS (14-3-3σ); peptides from Elim Biopharmaceuticals
# Protocol conditions: 1 μM compound, 100 nM 14-3-3σ, 18 µM peptide, 24 h
I'd appreciate it if you marked entries Yes when % bound, C-RAF259 (11mer), 24h is lower than 50% and No when it is not.

Answered examples (10):
Compound: O=C(CCl)NCC1CCN(S(=O)(=O)c2ccc(F)c(F)c2)CC1
Label: Yes

Compound: O=C(CCl)NCC1CCN(S(=O)(=O)c2cc(F)c(Br)c(F)c2)CC1
Label: No

Compound: O=C(CCl)N1CC2(CCN(S(=O)(=O)c3ccc(Br)c(F)c3)CC2)C1
Label: No

Compound: Cc1ccc(S(=O)(=O)N2CCC(CNC(=O)CCl)CC2)cc1
Label: No

Compound: O=C(CCl)NCC1CCN(S(=O)(=O)c2cc(F)c(Br)cc2F)CC1
Label: No

Compound: O=C(CCl)NCC1CCN(S(=O)(=O)c2ccc(Br)cc2F)CC1
Label: No

Compound: O=C(CCl)N1CC2CC1CN2S(=O)(=O)c1ccc(Br)c(F)c1 (stereo not shown)
Label: No

Compound: O=C(CCl)N1CC2CCC1CC2NS(=O)(=O)c1ccc(Br)c(F)c1 (stereo not shown)
Label: No

Compound: O=C(CCl)NCC1CCN(S(=O)(=O)c2ccccc2)CC1
Label: Yes

Compound: O=C(CCl)NCC1CCN(S(=O)(=O)Cc2ccc(Cl)cc2)CC1
Label: Yes

Qu. Determine if O=C(C(Cl)Cl)N1CC2(CCN(S(=O)(=O)c3ccc(Br)c(F)c3)CC2(F)F)C1 shows % bound, C-RAF259 (11mer), 24h strictly lower than 50%.
Ans. Yes

Qu. Further, for O=C(CCl)NC1CC2(CCN(S(=O)(=O)c3ccc(Br)c(F)c3)CC2)C1 ?
Ans. Yes

Qu. Param item: O=C(CCl)N1CC2(CCN(S(=O)(=O)c3ccc(Br)c(F)c3)CC2(F)F)C1
Ans. No

Qu. Now give it for O=C(CCl)NCC1CCN(S(=O)(=O)c2ccc(Cl)nc2)CC1 too.
Ans. Yes

Qu. For O=C(CCl)NCc1ccc(NS(=O)(=O)c2ccc(Br)c(F)c2)cc1 then?
Ans. Yes

Qu. Repeat for the following compound: O=C(CCl)NCC1CCN(S(=O)(=O)C2CC3(C2)CC(F)(F)C3)CC1
Ans. Yes

Qu. Please give the result for O=C(CCl)NCC1CCN(S(=O)(=O)Cc2ccc(F)cc2)CC1 too.
Ans. Yes

====

# System: pERK
# Assay: Lumit immunoassay for pERK levels in HEK293T cells
# Assay type: cell-based
# Protocol conditions: Homo sapiens, HEK-293T; HEK293T, 14-3-3σ and C-RAF transfected, 24 h, EGF stimulation
Measurement type: IC50 (µM)
// units = µM; emit number, no label

Qu. Dear colleague, I am looking for the recorded IC50 of the following molecule: O=C(CCl)NCC1CCN(S(=O)(=O)c2ccc(I)cc2)CC1
Ans. 4.4

====

# Target or system: 14-3-3σ/C-RAF259 (Homo sapiens, UniProt P31947)
# Assay: Intact mass spectrometry assay with C-RAF259 phospho-peptide
# Assay type: binding
# Set-up: full-length for mass spectrometry and fluorescence anisotropy assays; made in house; host or cells: E. coli Rosetta 2(DE3)pLysS (14-3-3σ); peptides from Elim Biopharmaceuticals
# Protocol conditions: 1 μM compound, 100 nM 14-3-3σ, 18 µM peptide, 8 h
Known % bound, C-RAF259 (11mer), 8h of a selection of molecules
I only need the number, in %, no unit after it.

Study these solved cases before continuing.
Line notation: O=C(CCl)NCC1CCN(S(=O)(=O)c2ccc(Br)cc2F)CC1
% bound, C-RAF259 (11mer), 8h, %: 41.1
--
Line notation: O=C(CCl)NCC1CCN(S(=O)(=O)Cc2ccc(F)cc2)CC1
% bound, C-RAF259 (11mer), 8h, %: 1.5
--
Line notation: O=C(CCl)N1CC2(CCN(S(=O)(=O)c3ccc(Br)c(F)c3)CC2)C1
% bound, C-RAF259 (11mer), 8h, %: 32.4
--
Line notation: O=C(CCl)NCC1CCN(S(=O)(=O)Cc2ccccc2)CC1
% bound, C-RAF259 (11mer), 8h, %: 2.9
--
Line notation: O=C(CCl)NCC1CCN(S(=O)(=O)c2ccc3c(c2)OCO3)CC1
% bound, C-RAF259 (11mer), 8h, %: 11.3
--
Line notation: O=C(CCl)NC1CC2(CCN(S(=O)(=O)c3ccc(Br)c(F)c3)CC2)C1
% bound, C-RAF259 (11mer), 8h, %: 9.9

Qu. I would be grateful if you could share the reported % bound, C-RAF259 (11mer), 8h for O=C(CCl)NCC1CCN(S(=O)(=O)c2ccc(Cl)nc2)CC1 .
Ans. 7.4

Qu. Now the molecule O=C(CCl)NCC1CCN(S(=O)(=O)c2cc(F)c(Br)cc2F)CC1
Ans. 64.6

Qu. Entry O=C(CCl)NCC1CCN(S(=O)(=O)c2cccc(C(F)(F)F)c2)CC1 please
Ans. 3.4
